experimentalTarget: HLA-A*03:01
method: IEDB peptide-MHC binding, purified MHC/competitive/radioactivity; filed as Kd, often an IC50 or EC50 that approximates it; bounds were set here for any values at or beyond the usual limits of such assays
cond: source organism: Lymphocytic choriomeningitis virus (strain Armstrong)
pKd: −log10 of the molar value.
Hi there, I'd appreciate the recorded pKd for every entry that follows.

[[record]]
sequencecode = "VVKWKRDEH"
reportedendpoint = "pKd"
reportedresult = "≤ 4.43"


Here is the next item to consider.
The reported value for YSKFWYLEH in terms of pKd is ≤ 4.11

====

experimentalTarget: HLA-B*51:01
method: IEDB peptide-MHC binding, purified MHC/competitive/radioactivity; filed as Kd, often an IC50 or EC50 that approximates it; bounds were set here for any values at or beyond the usual limits of such assays
cond: source organism: Vaccinia virus Copenhagen
reportedEndpoint: Kd

The reported value for LMDSIFVST in terms of Kd is ≥ 77.5 µM
